Reported Phage binding ELISA, Anti-CD28 Fab signal values for a set of binders
- tgt: T1, Anti-CD28 Fab (SEQ ID NOs: 696, 697)
- T1 construct: In the phage ELISA the Fab was biotinylated and captured on neutravidin coated plates
- procedure.text: phage ELISA; biotinylated anti-CD28 Fab on neutravidin plate, clonal phage supernatant, anti-M13 HRP detection;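 further: before phage addition, wells were pretreated with either CD28 antigen in blocking buffer or only blocking buffer, and phage was added without an intervening wash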
// response body must contain only the number

Lab note: TCAAGAMWVWPTCL (Tested as clonal phage supernatant; not shown: fused to pIII of the bacteriophage) [Phage-1499 (Peptide-92 library clone, SEQ ID NO: 1795)] gave Phage binding ELISA, Anti-CD28 Fab signal of 1.66

// Phage binding ELISA, Anti-CD28 Fab signal value for WCAAGAMYPWPLCL (Tested as clonal phage supernatant; not shown: fused to pIII of the bacteriophage) [Phage-1496 (Peptide-92 library clone, SEQ ID NO: 1792)] : 1.67

Note to self: Phage binding ELISA, Anti-CD28 Fab signal recorded for TCSAGAHFAWPMCF (Tested as clonal phage supernatant; not shown: fused to pIII of the bacteriophage) [Phage-1492 (Peptide-92 library clone, SEQ ID NO: 1788)] was 1.69

Measured Phage binding ELISA, Anti-CD28 Fab signal of SCAAGAHYVWPFCF (Tested as clonal phage supernatant; not shown: fused to pIII of the bacteriophage) [Phage-1493 (Peptide-92 library clone, SEQ ID NO: 1789)] : 1.68

Sure, the documented Phage binding ELISA, Anti-CD28 Fab signal for SCAAGATYTWPMCI (Tested as clonal phage supernatant; not shown: fused to pIII of the bacteriophage) [Phage-1501 (Peptide-92 library clone, SEQ ID NO: 1797)] is 1.66

Turning now to a further record.
The binder listed as LCNAGAPYKWPTCL (Tested as clonal phage supernatant; not shown: fused to pIII of the bacteriophage) [Phage-1497 (Peptide-92 library clone, SEQ ID NO: 1793)] has a reported Phage binding ELISA, Anti-CD28 Fab signal of 1.66
